Values were extracted from ChEMBL document CHEMBL4321800.

Measured Activity accompanies every entry in the list below.
# TESTED_ON: UniProtKB P42582
# ASSAY: Modulation of mouse NKX2-5 expressed in Chlorocebus aethiops COS1 cells harboring 3xHA reporter gene assessed as protein-induced transcriptional activity at 10 uM after 24 hrs by luciferase reporter gene assay relative to control
# Type: cell-based
MEASUREMENT_LABEL: Activity (%)

CCN(CC)c1ccc(CNc2c(-c3ccccc3)noc2C)cc1: 89
CCN(CC)c1ccc(NC(=O)c2c(-n3cccc3)sc(C)c2C)cc1: 90
CCN(CC)c1ccc(NC(=O)c2c(-c3ccc(C)s3)noc2C)cc1: 88

----------
# TESTED_ON: GATA4/NKX2-5 (Mus musculus) (UniProt Q08369+P42582)
# ASSAY: Modulation of mouse GATA4/mouse NKX2-5 protein-protein interaction expressed in Chlorocebus aethiops COS1 cells harboring 3xHA reporter gene assessed as transcriptional synergy at 10 uM after 24 hrs by luciferase reporter gene assay relative to control
# Type: cell-based
Reported values of Activity for individual entries
MEASUREMENT_LABEL: Activity (%)

CCN(CC)c1ccc(NC(=O)c2cc(C)sc2-c2cc(C)on2)cc1: 85
Cc1onc(-c2ccccc2)c1C(=O)Nc1ccc(C(=O)O)cc1: 98
CCN(CC)c1ccc(NC(=O)c2c(-c3ccccc3)noc2C)cc1: 50
CCN(CC)c1ccc(NC(=O)c2nnn(C)c2-c2ccccc2)cc1: 78
CCC(OC)c1ccc(OCc2c(-c3ccccc3)noc2C)cc1 (racemic): 43
CCN(CC)c1ccc(NC(=O)c2c(-c3ccc(F)cc3)noc2C)cc1: 44

----------
# TESTED_ON: Homeobox protein Nkx-2.5 (Mus musculus) (UniProt P42582)
# Sequence (P42582 whole entry): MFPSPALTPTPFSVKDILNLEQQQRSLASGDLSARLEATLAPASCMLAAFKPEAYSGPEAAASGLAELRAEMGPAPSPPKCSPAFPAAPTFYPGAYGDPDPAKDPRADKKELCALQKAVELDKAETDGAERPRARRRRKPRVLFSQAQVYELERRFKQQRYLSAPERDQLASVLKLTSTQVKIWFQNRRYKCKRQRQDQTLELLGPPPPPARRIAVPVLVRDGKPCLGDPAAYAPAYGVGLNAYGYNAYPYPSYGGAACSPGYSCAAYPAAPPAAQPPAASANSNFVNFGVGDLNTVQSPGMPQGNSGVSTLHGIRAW
# ASSAY: Modulation of mouse NKX2-5 expressed in Chlorocebus aethiops COS1 cells harboring 3xHA reporter gene assessed as protein-induced transcriptional activity at 10 uM after 24 hrs by luciferase reporter gene assay relative to control
# Assay type: cell-based
Consider the following molecules and their measured Activity readings.
MEASUREMENT_LABEL: Activity

CCN(CC)c1ccc(NC(=O)c2c(-c3ccccc3)noc2C)cc1: 49%
CCN(CC)c1ccc(NC(=O)c2snnc2-c2ccccc2)cc1: 49%
CCN(CC)c1ccc(NC(=O)c2cnoc2-c2ccccc2)cc1: 50%

----------
# TESTED_ON: Transcription factor GATA-4 (Mus musculus) (UniProt Q08369)
# Sequence (Q08369 whole entry): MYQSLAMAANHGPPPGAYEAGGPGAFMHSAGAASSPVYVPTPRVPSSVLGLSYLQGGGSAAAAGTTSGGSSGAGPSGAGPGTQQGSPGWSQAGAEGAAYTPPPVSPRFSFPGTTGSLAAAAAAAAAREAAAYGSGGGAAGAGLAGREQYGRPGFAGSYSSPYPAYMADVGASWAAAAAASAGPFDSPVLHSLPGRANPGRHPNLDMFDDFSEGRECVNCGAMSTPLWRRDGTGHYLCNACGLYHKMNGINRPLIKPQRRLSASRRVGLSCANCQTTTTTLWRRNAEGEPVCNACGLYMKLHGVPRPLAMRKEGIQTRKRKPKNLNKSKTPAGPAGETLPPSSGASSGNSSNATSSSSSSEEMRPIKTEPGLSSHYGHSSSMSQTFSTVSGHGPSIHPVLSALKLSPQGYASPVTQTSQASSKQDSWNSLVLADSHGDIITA
# ASSAY: Modulation of mouse GATA4 expressed in Chlorocebus aethiops COS1 cells harboring NP-112 reporter gene assessed as BNP promoter-driven transcriptional activity at 10 uM after 24 hrs by luciferase reporter gene assay relative to control
# Type: cell-based
Measured Activity accompanies every entry in the list below.
MEASUREMENT_LABEL: Activity (%)

CCN(CC)c1ccc(NC(=O)c2c(-c3ccsc3)noc2C)cc1: 71
CCN(CC)c1ccc(NC(=O)c2c(-c3ccccc3)noc2C)cc1: 62
CCN(CC)c1ccc(NC(=O)c2c(-c3coc(C)n3)noc2C)cc1: 110
CCN(CC)c1ccc(NC(=O)c2c(C)noc2-c2cc(C)on2)cc1: 100
CCN(CC)c1ccc(NC(=O)c2c(-c3ccc(C)s3)noc2C)cc1: 92
CCN(CC)c1ccc(N(C)C(=O)c2c(-c3ccccc3)noc2C)cc1: 99
CCN(CC)c1ccc(NC(=O)c2c(-c3ccncc3)noc2C)cc1: 79

----------
Activity values for the molecules below.
# TESTED_ON: GATA4/NKX2-5 (Mus musculus) (UniProt Q08369+P42582)
# ASSAY: Modulation of mouse GATA4/mouse NKX2-5 protein-protein interaction expressed in Chlorocebus aethiops COS1 cells harboring 3xHA reporter gene assessed as transcriptional synergy at 10 uM after 24 hrs by luciferase reporter gene assay relative to control
# Type: cell-based
MEASUREMENT_LABEL: Activity (%)

Cc1onc(-c2cccc([N+](=O)[O-])c2)c1C(=O)Nc1ccc(N(C)C)cc1: 100
COC(=O)c1ccc(NC(=O)c2c(-c3ccccc3)noc2C)cc1: 92
Cc1onc(-c2ccccc2)c1COc1ccc([N+](=O)[O-])cc1: 85
Cc1onc(-c2ccccc2)c1C(=O)Nc1ccc(C(=O)OCC#N)cc1: 90
CCN(CC)c1ccc(NC(=O)c2c(-c3ccccc3[N+](=O)[O-])noc2C)cc1: 84
CC[N+](C)(c1ccc(NC(=O)c2c(-c3ccccc3)noc2C)cc1)C(C)C (centres undefined): 83
CCN(CC)c1ccc(CN(C)c2c(-c3ccccc3)noc2C)cc1: 82
CCN(CC)c1ccc(/N=C(\SCCF)c2c(-c3ccccc3)noc2C)cc1: 110
CCN(CC)c1ccc(NC(=O)c2c(-c3ccccn3)noc2C)cc1: 100
